- test.target: Acetylcholinesterase (Rattus norvegicus)
- Sequence (P37136 whole entry): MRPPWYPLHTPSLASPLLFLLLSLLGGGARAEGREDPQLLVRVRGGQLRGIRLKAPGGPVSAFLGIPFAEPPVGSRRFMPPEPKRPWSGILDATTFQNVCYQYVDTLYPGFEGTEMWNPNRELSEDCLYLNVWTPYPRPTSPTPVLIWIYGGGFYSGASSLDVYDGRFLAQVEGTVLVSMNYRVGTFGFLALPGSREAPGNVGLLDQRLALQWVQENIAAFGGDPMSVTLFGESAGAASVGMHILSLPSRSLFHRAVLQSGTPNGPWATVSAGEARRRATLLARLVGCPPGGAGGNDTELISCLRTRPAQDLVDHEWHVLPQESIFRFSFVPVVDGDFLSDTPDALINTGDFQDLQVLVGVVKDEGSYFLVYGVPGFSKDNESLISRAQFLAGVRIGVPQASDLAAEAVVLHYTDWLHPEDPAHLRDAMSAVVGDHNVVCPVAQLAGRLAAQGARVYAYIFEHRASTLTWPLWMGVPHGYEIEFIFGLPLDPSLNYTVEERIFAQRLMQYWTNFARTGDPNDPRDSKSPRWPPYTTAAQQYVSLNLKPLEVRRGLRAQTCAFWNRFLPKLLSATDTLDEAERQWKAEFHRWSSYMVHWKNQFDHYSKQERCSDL
Recorded IC50, one value per entry.
measured.quantity: IC50

>>> df
                                    molecule  measured_quantity   result
 0  Cc1ccc(N2O[C@@H]3C(=O)N(c4ccc(C(=O)O)cc4)C(=O)[C@@H]3[C@@H]2c2ccccc2O)cc1               IC50  23.2 nM
 1  COc1ccc([C@H]2[C@H]3C(=O)N(c4ccc(C(=O)O)cc4)C(=O)[C@H]3ON2c2ccc(C)cc2)cc1 (relative stereo)               IC50  17.5 nM
 2  Cc1ccc(N2O[C@@H]3C(=O)N(c4ccc(C(=O)O)cc4)C(=O)[C@@H]3[C@@H]2c2ccccc2Cl)cc1 (relative stereo)               IC50  21.3 nM
 3  O=C(O)c1ccc(N2C(=O)[C@@H]3[C@@H](ON(c4ccccc4)[C@H]3c3ccccc3Cl)C2=O)cc1 (relative stereo)               IC50  22.4 nM
 4  O=C(O)c1ccc(N2C(=O)[C@@H]3[C@@H](ON(c4ccccc4)[C@H]3c3ccccc3O)C2=O)cc1 (relative stereo)               IC50  24.8 nM
 5  O=C(O)c1ccc(N2C(=O)[C@@H]3[C@@H](ON(c4ccccc4)[C@H]3c3ccccc3)C2=O)cc1 (relative stereo)               IC50  24.4 nM
 6  Cc1ccc(N2O[C@@H]3C(=O)N(c4ccc(C(=O)O)cc4)C(=O)[C@@H]3[C@@H]2c2ccccc2[N+](=O)[O-])cc1 (relative stereo)               IC50  24.3 nM
 7  Cc1ccc(N2O[C@@H]3C(=O)N(c4ccc(C(=O)O)cc4)C(=O)[C@@H]3[C@@H]2c2cccc(Cl)c2)cc1 (relative stereo)               IC50  22.2 nM
 8  O=C(O)c1ccc(N2C(=O)[C@@H]3[C@@H](ON(c4ccccc4)[C@H]3c3ccc(Cl)cc3)C2=O)cc1 (relative stereo)               IC50  20.9 nM
 9  Cc1ccc(N2O[C@H]3C(=O)N(c4ccc(C(=O)O)cc4)C(=O)[C@H]3[C@@H]2c2ccc([N+](=O)[O-])cc2)cc1               IC50  24.1 nM
10  COc1cccc([C@H]2[C@@H]3C(=O)N(c4ccc(C(=O)O)cc4)C(=O)[C@@H]3ON2c2ccccc2)c1 (relative stereo)               IC50  20.5 nM
11  Cc1ccc(N2O[C@H]3C(=O)N(c4ccc(C(=O)O)cc4)C(=O)[C@H]3[C@@H]2c2ccccc2O)cc1 (relative stereo)               IC50  24.1 nM
12  COc1ccc([C@H]2[C@@H]3C(=O)N(c4ccc(C(=O)O)cc4)C(=O)[C@@H]3ON2c2ccc(C)cc2)cc1 (relative stereo)               IC50    18 nM
13  O=C(O)c1ccc(N2C(=O)[C@H]3[C@H](ON(c4ccccc4)[C@H]3c3ccccc3Cl)C2=O)cc1 (relative stereo)               IC50  21.8 nM
14  COc1cccc([C@H]2[C@H]3C(=O)N(c4ccc(C(=O)O)cc4)C(=O)[C@H]3ON2c2ccc(C)cc2)c1 (relative stereo)               IC50  18.8 nM
15  Cc1ccc(N2O[C@@H]3C(=O)N(c4ccc(C(=O)O)cc4)C(=O)[C@@H]3[C@@H]2c2ccc(O)cc2)cc1 (relative stereo)               IC50  21.9 nM
16  Cc1ccc(N2O[C@H]3C(=O)N(c4ccc(C(=O)O)cc4)C(=O)[C@H]3[C@@H]2c2ccccc2)cc1 (relative stereo)               IC50  22.4 nM
17  COc1ccccc1[C@H]1[C@H]2C(=O)N(c3ccc(C(=O)O)cc3)C(=O)[C@H]2ON1c1ccc(C)cc1 (relative stereo)               IC50  19.1 nM
18  Cc1ccc(N2O[C@@H]3C(=O)N(c4ccc(C(=O)O)cc4)C(=O)[C@@H]3[C@@H]2c2ccc([N+](=O)[O-])cc2)cc1 (relative stereo)               IC50  23.4 nM
19  Cc1ccc(N2O[C@H]3C(=O)N(c4ccc(C(=O)O)cc4)C(=O)[C@H]3[C@@H]2c2ccccc2[N+](=O)[O-])cc1 (relative stereo)               IC50  25.2 nM
20  O=C(O)c1ccc(N2C(=O)[C@@H]3[C@@H](ON(c4ccccc4)[C@H]3c3ccc(O)cc3)C2=O)cc1 (relative stereo)               IC50  22.7 nM
21  COc1ccc([C@H]2[C@H]3C(=O)N(c4ccc(C(=O)O)cc4)C(=O)[C@H]3ON2c2ccccc2)cc1 (relative stereo)               IC50  18.8 nM
22  O=C(O)c1ccc(N2C(=O)[C@H]3[C@H](ON(c4ccccc4)[C@H]3c3ccc(O)cc3)C2=O)cc1 (relative stereo)               IC50  22.5 nM
23  O=C(O)c1ccc(N2C(=O)[C@H]3[C@H](ON(c4ccccc4)[C@H]3c3cccc(Cl)c3)C2=O)cc1 (relative stereo)               IC50  20.1 nM
24  O=C(O)c1ccc(N2C(=O)[C@@H]3[C@@H](ON(c4ccccc4)[C@H]3c3ccc([N+](=O)[O-])cc3)C2=O)cc1 (relative stereo)               IC50  26.4 nM

Taken from ChEMBL document CHEMBL2069196.
